Target: ER-alpha (WT) (Homo sapiens)
Construct: endogenous in cells
Sequence (P03372 1-595): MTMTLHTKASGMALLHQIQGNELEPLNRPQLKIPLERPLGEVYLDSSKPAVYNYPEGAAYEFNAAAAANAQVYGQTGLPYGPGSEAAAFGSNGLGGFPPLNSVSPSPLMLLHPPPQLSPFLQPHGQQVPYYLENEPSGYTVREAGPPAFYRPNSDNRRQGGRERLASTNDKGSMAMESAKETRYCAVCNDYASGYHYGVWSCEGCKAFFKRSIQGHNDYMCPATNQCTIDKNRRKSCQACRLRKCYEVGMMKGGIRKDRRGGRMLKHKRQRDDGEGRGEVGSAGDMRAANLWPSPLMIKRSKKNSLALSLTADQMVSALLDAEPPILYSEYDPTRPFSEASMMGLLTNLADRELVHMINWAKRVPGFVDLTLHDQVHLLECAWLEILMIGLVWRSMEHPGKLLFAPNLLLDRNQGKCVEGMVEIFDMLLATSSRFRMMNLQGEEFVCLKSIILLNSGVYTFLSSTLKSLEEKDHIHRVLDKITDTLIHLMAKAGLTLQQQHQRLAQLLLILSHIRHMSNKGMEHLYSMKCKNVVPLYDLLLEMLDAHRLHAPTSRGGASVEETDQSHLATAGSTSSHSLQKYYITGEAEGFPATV
Test: Breast Cancer Cell ERa High Content Fluorescence Imaging Degradation Assay (MCF7 HCS)
Settings: MCF7 breast cancer cells, 4 hours incubation; inflexion point of curve
Description: MCF7 breast cancer cells were seeded on day 1 at a density of 10,000 cells per well in 384 well poly-lysine coated tissue culture plate (Greiner #T-3101-4), in 50 μL/well RPMI (phenol red free), 10% FBS (Charcoal stripped), containing L-glutamine. […] Quantitative fluorescence imaging of ESR1 was carried out using a Cellomics Arrayscan V® (Thermo). […]
Below: a set of entries, each annotated with reported log10 EC50.
QUANTITY: log10 EC50 (log10 of the value in nM)

- C[C@@H]1CCN(CCOc2ccc([C@@]3(C)c4ccc(O)cc4CCN3CC(C)(C)F)cc2)C1 [Example 125]: 0.87
- C[C@H]1Cc2cc(C(C)(C)O)ccc2[C@H](c2ccc(OCCN3CC(CF)C3)cc2)N1CC(F)(F)F [Example 162]: 2.45
- Oc1ccc2c(c1)CCN(CC(F)(F)F)C2c1c(F)cc(OC2CN(CCCF)C2)cc1F (single isomer, unassigned) [Example 143]: 1.34
- C[C@]1(c2ccc(OCCN3CC(CF)C3)cc2)c2ccc(O)cc2CCN1CC(F)(F)F [Example 112]: 0.64
- C[C@H]1Cc2c(ccc3[nH]ncc23)[C@H](c2c(F)cc(OCCN3CC(CF)C3)cc2F)N1CC(C)(C)F (single isomer, unassigned) [Example 124]: 0.51
